Reported melting point is given for each of the following compounds.

// known answers, use as guide
CCOC(=O)C1=C(NC(=O)Nc2cc(C(=O)OC(C)C)c(Cl)cc2F)CCCC1 | 129 to 130 °C
Cc1cc(O)ccc1-c1ccc(N)cc1 | 156 to 157 °C
COc1cc(Nc2nc3cccc(-c4ccc(S(N)(=O)=O)cc4)c3o2)cc(OC)c1OC | 247 to 252 °C
O=C1NCCc2c[nH]c3cccc1c23 | 234 °C
CCCCCCCCCCCCCC(=O)Nc1ccc(Cl)c(NC(=CC(=O)OCC)OCC)c1 | 115 to 118 °C

Prompt: Fill in the blank: the reported melting point of CC(=O)NC1(c2ccc(Cl)cc2)c2ccc(Cl)cc2-c2ncncc21 (stereo not given) is ____.
Response: 238 to 241 °C

Prompt: // melting point lookup, key: `Cc1cc(C)c2sc(N)nc2c1`
Response: 142 to 144 °C

Prompt: For the compound shown here, COC(=O)c1cc2c(nc1C1=NC(C)(C(C)C)C(=O)N1)CCOC2 (stereo not given) , give the reported melting point.
Response: 208 to 220 °C

Prompt: Which value of melting point has been reported for `CC(=O)OC[C@@H]1O[C@H](n2c(NC(C)C)nc3c(Cl)cccc32)[C@@H](OC(C)=O)[C@H]1OC(C)=O` in the records?
Response: 225 to 227 °C

Prompt: Item under review: `CCc1cc(-c2ccc(OC)cc2)ccc1[N+](=O)[O-]` . Reported melting point?
Response: 94 to 95 °C

====

The molecules listed here are annotated with their melting point.

CC(C)NC(=S)NCc1c(Cl)ccc(C(=O)O)c1Cl | > 220 °C
COc1nc(C)nc(NC(=N)SC)n1 | 112 °C
COc1ccc(C2=NN(C3CCCC3)C(=O)[C@H]3CC=CC[C@@H]23)cc1Cl (relative stereo) | 201 to 202 °C

Now for the molecule whose melting point we want.
Prompt: Find the recorded melting point belonging to `N#Cc1c(Nc2c(F)cccc2F)cccc1-c1ccccc1` and report it.
Response: 139 to 141 °C

====

Reported melting point is given for each of the following molecules.

N#Cc1ccc2c(c1)OCC21C(=O)N(Cc2ccc3c(c2)OCCO3)c2ccccc21 (centres undefined) | 181 to 183 °C

Prompt: Requested field: melting point. Item: Cc1nccc(-c2ccccc2)c1CC[C@H]1C[C@H](O)CC(=O)O1 (relative stereo)
Response: 107 to 108 °C

Prompt: I am curious: what melting point value has been reported for `Nc1ccccc1SCc1ncon1` ?
Response: 57 °C

Prompt: Record request: melting point value, item `NC(=O)c1c(NC(=O)C2CC2)sc2c1CCC(F)(F)C2`
Response: 207 to 208 °C

Prompt: State the recorded melting point for this entry: `COc1cc(OC)nc(NC(=O)NS(=O)(=O)Nc2ccc(F)cc2C(=O)C2CC2)n1`
Response: 76 to 78 °C

Prompt: # query: melting point of entry `Cc1cc(Cl)ccc1N=CNN=C(c1ccc(Cl)cc1)c1ccc(OS(C)(=O)=O)cc1`
Response: 60 to 100 °C

Prompt: Entry under review: O=C(CC(c1cc(F)ccc1F)S(=O)(=O)c1ccc(Cl)cc1)N1CCCC1 (centres undefined) . Reported melting point?
Response: 122 to 125 °C

Prompt: # query: melting point of entry `NC(=O)N(O)Cc1ccc(OCc2csc(-c3ccccc3)n2)cc1`
Response: 161 to 164 °C

====

# melting point values compiled below

Below, 5 compounds whose answers are already recorded.
CCOc1cc(OC)c2cc(C(=O)CN=[N+]=[N-])ccc2n1 | 129 to 132 °C
O=C(NCCN1CCOc2ccc(O)cc21)c1ccco1 | 59 to 62 °C
O=C(O)C(=O)c1ccc(OCCCCc2ccncc2)cc1 | 198 to 199 °C
CSc1cnc2sccc2c1O | 203 to 205 °C
COc1c(F)cccc1C(=O)Cl | 71 to 73 °C

Prompt: Can you look up the measured melting point of `CC(=O)c1cccc2nc[nH]c12` for me?
Response: 220 to 223 °C

Prompt: // melting point lookup, key: Cc1oc(-c2ccccc2)nc1COc1cccc(C#CC(C)n2oc(=O)[nH]c2=O)c1 (stereo unspecified)
Response: 55 to 57 °C

Prompt: Suppose we examine the compound CC12CCC(O)CC1=CCC1C2CCC2(C)C(=C(C#N)CC(=O)O)CCC12 (stereo unspecified) ; what melting point value has been reported?
Response: 245 to 250 °C

Prompt: Entry C#CCN(C(CCn1c(=O)[nH]c(C)c(C)c1=O)C(=O)NO)S(=O)(=O)c1ccc(Oc2ccccc2)cc1 (stereo unspecified) : reported melting point = ?
Response: 180 to 181 °C

Prompt: I have this compound here, `CCc1nc(Cl)cc(NN)n1` , and I need its recorded melting point.
Response: 147 to 150 °C

Prompt: Can you look up the measured melting point of `COc1ccnc(CCc2nc3c(C)cc(C)nc3[nH]2)c1` for me?
Response: 176 to 178 °C

====

measurement.type: melting point

# annotated cases, reported melting point shown
O=C(Nc1cccc(C(F)(F)F)c1)c1cccc2cc(Oc3cc(CCl)ncn3)ccc12 | 178 to 181 °C
CCOC(=O)C(=CNC1CC1)C(=O)c1cc(F)c(F)c(C)c1F | 73 to 75 °C
C=C(Sc1ccc(Br)cc1)S(=O)(=O)c1cccc([N+](=O)[O-])c1 | 109 to 111 °C

Prompt: What value of melting point has been recorded for this entry: `COc1cc2ncnc(N3CCN(C(=O)Nc4cccnc4)CC3)c2cc1OC`
Response: 208 to 209 °C

Prompt: Which value of melting point has been reported for `Nc1nc(-c2cc(OCc3ccccc3)no2)cs1` in the records?
Response: 129 to 131 °C

Prompt: Would you kindly share the measured melting point for `CSc1sc(-c2cncs2)c2c1C(=O)CC(C)(C)C2` ?
Response: 138 to 140 °C

Prompt: Query (compound): `O=C(O)CCC(=O)C(=O)N1CCCC1` ; field requested: melting point
Response: 101 to 102 °C

Prompt: # lookup: melting point of `COC1(c2cc(OCc3ccc4c(ccc(=O)n4C)c3)cc(C(F)(F)F)c2)CCOCC1`
Response: 103 °C

Prompt: May I ask what melting point has been recorded for `Cc1sc(Cc2ccccc2)c(-c2ccc(-c3ccc(OS(=O)(=O)c4ccc(C(=O)O)c(O)c4)cc3)cc2)c1C` ?
Response: 173 to 175 °C

Prompt: What does the record list as melting point for `Cc1cc(C(N)=O)nn1CCO` ?
Response: 170 to 172 °C

====

measurement.type: melting point

Known melting point results, listed for orientation:
CCCn1nc(Cc2ccc(-c3ccccc3S(=O)(=O)NC(=O)c3ccccc3)cc2)c(C(=O)O)c1Cc1ccccc1 | 105 to 109 °C
O=S1(=O)N=CN(C2CC2)c2cc(F)cc(Cl)c21 | 252 to 255 °C
Cc1cc(C)c(/C=C2\C(=O)N(C(=O)CNC(=O)OCc3ccccc3)c3ccccc32)[nH]1 | 193 to 196 °C
O=CNc1nc(CSc2ccncc2)cs1 | 182 to 184 °C
CC(C)N(CCCC(=NNC(N)=S)c1ccccc1)C(=O)c1ccccc1 | 107 to 109 °C

Prompt: Name the recorded melting point for `CC(C)(C)c1ccc2c(c1)C(=O)c1ccc(-c3nnn[nH]3)cc1S2(=O)=O` .
Response: 228 °C

Prompt: Could you share which melting point value was measured for Cc1nccn1CC1CCc2c(c3ccccc3n2C)/C1=N/OC(=O)c1cccc(C#N)c1 (centres undefined) ?
Response: 160 to 166 °C

Prompt: Name the recorded melting point for `CS(=O)(=O)NC(=O)CCCCOc1cccc2occc12` .
Response: 110 to 112 °C

Prompt: What melting point value was documented for this molecule, CC(C)C12COc3cc(Cl)ccc3C1=NN(C(Cl)=Nc1ccc(C(F)(F)F)cc1)C2 (centres undefined) ?
Response: 148 to 149 °C

Prompt: # get_value(readout='melting point', item= `CNC(=O)Nc1nc2c(s1)C(C)(C)CC(C)(C)C2` )
Response: > 250 °C

Prompt: Can you look up the measured melting point of COCCOC(=O)C1=C(C)NC(C)=C(C(=O)OC(C)C)C1c1ccsc1Cl (centres undefined) for me?
Response: 123 to 124 °C

Prompt: State the recorded melting point for this entry: `COc1ccc(-c2sc3cc(O)ccc3c2Oc2ccc(OCCN3CCCCC3)cc2)cc1`
Response: 157 °C

Prompt: Returns the measured melting point for the input molecule. Input: `COc1cc(Nc2c(C#N)cnc3cc(-c4csc(C5OCCO5)c4)sc23)c(Cl)cc1Cl`
Response: 219 to 221 °C

Prompt: Fill in: melting point of `Nc1ccc(CCc2ccc(Cl)c(Cl)c2)cc1O` is ___
Response: 147 to 149 °C

Prompt: # query: melting point of entry `CN(C)c1ccc2cc(-c3ccnc(N)c3C#N)ccc2c1`
Response: 256 to 257 °C

Prompt: Given `CC(C)(C)OC(=O)CSC(NCc1ccccc1)=C1C(=O)CCCC1=O` , state its recorded melting point.
Response: 142 to 143 °C

Prompt: Bench note: what melting point did `Cc1ccc(-n2nc(C(F)(F)F)cc2-c2ccc(S(C)(=O)=O)c(F)c2)cc1Cl` show?
Response: 144 to 145 °C

Prompt: Can you share its melting point? I mean this molecule: `N#Cc1cnn2c(-c3cccc(Cl)c3)ccnc12`
Response: 238 to 240 °C

Prompt: Record request: melting point value, item `COc1cc2c(cc1OC)CN(CCCOc1ccc([N+](=O)[O-])cc1)CC2`
Response: 100 °C

Prompt: Dear colleague, I am looking for the recorded melting point of the following molecule: `CCOC(=O)COc1cc(F)c(C)cc1C(=O)NCc1ccc(Br)cc1F`
Response: 128 to 129 °C

Prompt: Could you tell me which melting point is on file for `CCOC=Nc1sc2c(c1C#N)CCN(C)C2` ?
Response: 88 to 89 °C

Prompt: Consider the molecule `CS(=O)(=O)c1cc(-c2nc(=O)c3ccccc3s2)ccn1` and give its measured melting point.
Response: 190 to 192 °C

Prompt: I'd like to know its melting point. The molecule in question is `Cc1ccc(C(=O)c2ccccc2C2=NCCN2C(C)C)cc1`
Response: 87 to 89 °C

Prompt: Reported melting point, molecule `CC(O)(CCCC(F)(F)C(F)(F)C(F)(F)C(F)(F)C(F)(F)C(F)(F)F)CCCC(F)(F)C(F)(F)C(F)(F)C(F)(F)C(F)(F)C(F)(F)F` : ____
Response: 46 to 47 °C
